target or system: TLR1/TLR2 (Mus musculus, UniProt Q9EPQ1+Q9QUN7)
Sequence (Q9EPQ1 26-795): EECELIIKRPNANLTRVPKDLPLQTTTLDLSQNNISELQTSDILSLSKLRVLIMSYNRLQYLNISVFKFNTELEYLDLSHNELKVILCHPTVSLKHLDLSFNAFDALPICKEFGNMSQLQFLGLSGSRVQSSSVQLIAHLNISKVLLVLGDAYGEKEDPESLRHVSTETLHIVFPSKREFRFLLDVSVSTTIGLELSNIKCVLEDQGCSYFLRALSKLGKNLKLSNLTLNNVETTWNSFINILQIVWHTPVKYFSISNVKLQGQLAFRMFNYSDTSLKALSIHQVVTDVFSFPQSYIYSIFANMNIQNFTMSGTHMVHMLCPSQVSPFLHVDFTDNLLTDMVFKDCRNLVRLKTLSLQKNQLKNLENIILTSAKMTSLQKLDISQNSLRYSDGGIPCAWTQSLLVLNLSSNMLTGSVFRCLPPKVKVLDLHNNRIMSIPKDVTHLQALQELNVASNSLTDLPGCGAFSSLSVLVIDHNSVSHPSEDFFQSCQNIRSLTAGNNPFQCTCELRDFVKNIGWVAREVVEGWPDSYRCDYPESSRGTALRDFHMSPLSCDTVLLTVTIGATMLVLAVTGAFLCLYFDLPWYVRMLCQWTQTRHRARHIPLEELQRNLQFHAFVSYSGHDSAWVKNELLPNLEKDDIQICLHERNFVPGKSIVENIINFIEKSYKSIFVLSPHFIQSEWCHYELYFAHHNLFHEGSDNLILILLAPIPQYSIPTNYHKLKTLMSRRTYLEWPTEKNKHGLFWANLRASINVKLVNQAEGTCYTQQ
Sequence (Q9QUN7 25-784): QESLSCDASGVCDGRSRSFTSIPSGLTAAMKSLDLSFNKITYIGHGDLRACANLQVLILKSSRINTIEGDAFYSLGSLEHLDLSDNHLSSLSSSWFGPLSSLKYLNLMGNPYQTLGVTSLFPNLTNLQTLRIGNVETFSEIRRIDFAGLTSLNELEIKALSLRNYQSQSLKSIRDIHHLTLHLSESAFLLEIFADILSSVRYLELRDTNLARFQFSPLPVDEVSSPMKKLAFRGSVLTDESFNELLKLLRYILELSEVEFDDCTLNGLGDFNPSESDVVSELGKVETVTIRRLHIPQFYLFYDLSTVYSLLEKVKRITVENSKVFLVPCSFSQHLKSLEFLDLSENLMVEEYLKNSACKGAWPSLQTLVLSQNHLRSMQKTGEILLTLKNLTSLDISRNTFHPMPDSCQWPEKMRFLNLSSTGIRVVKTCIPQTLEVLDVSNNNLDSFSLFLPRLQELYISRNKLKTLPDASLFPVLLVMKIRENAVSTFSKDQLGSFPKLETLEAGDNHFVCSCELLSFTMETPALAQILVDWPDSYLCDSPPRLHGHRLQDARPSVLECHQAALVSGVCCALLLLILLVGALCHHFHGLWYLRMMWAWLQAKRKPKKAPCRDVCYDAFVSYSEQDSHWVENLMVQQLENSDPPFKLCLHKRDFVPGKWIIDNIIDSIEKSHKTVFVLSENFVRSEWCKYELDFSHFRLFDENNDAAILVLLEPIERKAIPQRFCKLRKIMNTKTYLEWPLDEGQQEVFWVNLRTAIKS
procedure details: TNF-α release from thioglycolate-elicited mouse peritoneal macrophages (ELISA)
run conditions: 4 h, read-out: Efficacy (magnitude) of response versus diprovocim-1 (100%), mouse macrophages
quantity kind: Emax

given smiles	quantity kind	value observed
CC(C)(C)OC(=O)CCOCCOCCOCCNC(=O)CCCCCCCCCCCNC(=O)[C@@H]1CN(C(=O)c2ccc(C(=O)N3C[C@@H](C(=O)N[C@H]4C[C@@H]4c4ccccc4)[C@H](C(=O)N[C@H]4C[C@@H]4c4ccccc4)C3)cc2)C[C@H]1C(=O)N[C@H]1C[C@@H]1c1ccccc1	Emax	140%
CC(C)(C)OC(=O)NNC(=O)OCCCCCCCCCCCCNC(=O)[C@@H]1CN(C(=O)c2ccc(C(=O)N3C[C@@H](C(=O)N[C@H]4C[C@@H]4c4ccccc4)[C@H](C(=O)N[C@H]4C[C@@H]4c4ccccc4)C3)cc2)C[C@H]1C(=O)N[C@H]1C[C@@H]1c1ccccc1	Emax	220%
N#CCC(=O)OCCCCCCCCCCCCNC(=O)[C@@H]1CN(C(=O)c2ccc(C(=O)N3C[C@@H](C(=O)N[C@H]4C[C@@H]4c4ccccc4)[C@H](C(=O)N[C@H]4C[C@@H]4c4ccccc4)C3)cc2)C[C@H]1C(=O)N[C@H]1C[C@@H]1c1ccccc1	Emax	120%
CC(C)(C)OC(=O)N[C@@H](COCc1ccccc1)C(=O)OCCCCCCCCCCCCNC(=O)[C@@H]1CN(C(=O)c2ccc(C(=O)N3C[C@@H](C(=O)N[C@H]4C[C@@H]4c4ccccc4)[C@H](C(=O)N[C@H]4C[C@@H]4c4ccccc4)C3)cc2)C[C@H]1C(=O)N[C@H]1C[C@@H]1c1ccccc1	Emax	370%
CN(CC(=O)OCCCCCCCCCCCCNC(=O)[C@@H]1CN(C(=O)c2ccc(C(=O)N3C[C@@H](C(=O)N[C@H]4C[C@@H]4c4ccccc4)[C@H](C(=O)N[C@H]4C[C@@H]4c4ccccc4)C3)cc2)C[C@H]1C(=O)N[C@H]1C[C@@H]1c1ccccc1)C(=O)OC(C)(C)C	Emax	110%
CC(C)(C)OC(=O)NCCOCCOCCOCCOCCC(=O)OCCCCCCCCCCCCNC(=O)[C@@H]1CN(C(=O)c2ccc(C(=O)N3C[C@@H](C(=O)N[C@H]4C[C@@H]4c4ccccc4)[C@H](C(=O)N[C@H]4C[C@@H]4c4ccccc4)C3)cc2)C[C@H]1C(=O)N[C@H]1C[C@@H]1c1ccccc1	Emax	150%
Nc1ccc(COCCCCCCCCCCCCNC(=O)[C@@H]2CN(C(=O)c3ccc(C(=O)N4C[C@@H](C(=O)N[C@H]5C[C@@H]5c5ccccc5)[C@H](C(=O)N[C@H]5C[C@@H]5c5ccccc5)C4)cc3)C[C@H]2C(=O)N[C@H]2C[C@@H]2c2ccccc2)cc1	Emax	130%

====

target or system: TLR1/TLR2 (Homo sapiens, UniProt O60603+Q15399)
Sequence (Q15399 25-786): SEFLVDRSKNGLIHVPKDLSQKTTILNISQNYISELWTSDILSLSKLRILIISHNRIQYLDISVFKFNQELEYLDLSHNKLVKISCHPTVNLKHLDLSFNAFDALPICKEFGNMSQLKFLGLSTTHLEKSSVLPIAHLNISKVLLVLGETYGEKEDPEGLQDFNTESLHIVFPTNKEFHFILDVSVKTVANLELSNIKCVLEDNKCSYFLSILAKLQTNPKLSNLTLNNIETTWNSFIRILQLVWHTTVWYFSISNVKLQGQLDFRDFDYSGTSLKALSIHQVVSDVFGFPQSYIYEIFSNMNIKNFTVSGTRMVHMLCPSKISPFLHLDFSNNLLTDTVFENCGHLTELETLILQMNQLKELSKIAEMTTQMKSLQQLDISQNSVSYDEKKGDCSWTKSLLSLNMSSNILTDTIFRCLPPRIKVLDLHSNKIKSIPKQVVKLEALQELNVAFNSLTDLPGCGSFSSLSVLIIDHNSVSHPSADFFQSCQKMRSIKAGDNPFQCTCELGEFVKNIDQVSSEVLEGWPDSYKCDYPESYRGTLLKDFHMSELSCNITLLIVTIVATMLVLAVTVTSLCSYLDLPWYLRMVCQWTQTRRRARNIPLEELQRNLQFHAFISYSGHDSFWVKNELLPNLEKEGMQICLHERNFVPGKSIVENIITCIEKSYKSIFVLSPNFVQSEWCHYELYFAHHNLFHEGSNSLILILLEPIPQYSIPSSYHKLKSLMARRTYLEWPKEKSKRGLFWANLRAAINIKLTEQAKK
Sequence (O60603 21-784): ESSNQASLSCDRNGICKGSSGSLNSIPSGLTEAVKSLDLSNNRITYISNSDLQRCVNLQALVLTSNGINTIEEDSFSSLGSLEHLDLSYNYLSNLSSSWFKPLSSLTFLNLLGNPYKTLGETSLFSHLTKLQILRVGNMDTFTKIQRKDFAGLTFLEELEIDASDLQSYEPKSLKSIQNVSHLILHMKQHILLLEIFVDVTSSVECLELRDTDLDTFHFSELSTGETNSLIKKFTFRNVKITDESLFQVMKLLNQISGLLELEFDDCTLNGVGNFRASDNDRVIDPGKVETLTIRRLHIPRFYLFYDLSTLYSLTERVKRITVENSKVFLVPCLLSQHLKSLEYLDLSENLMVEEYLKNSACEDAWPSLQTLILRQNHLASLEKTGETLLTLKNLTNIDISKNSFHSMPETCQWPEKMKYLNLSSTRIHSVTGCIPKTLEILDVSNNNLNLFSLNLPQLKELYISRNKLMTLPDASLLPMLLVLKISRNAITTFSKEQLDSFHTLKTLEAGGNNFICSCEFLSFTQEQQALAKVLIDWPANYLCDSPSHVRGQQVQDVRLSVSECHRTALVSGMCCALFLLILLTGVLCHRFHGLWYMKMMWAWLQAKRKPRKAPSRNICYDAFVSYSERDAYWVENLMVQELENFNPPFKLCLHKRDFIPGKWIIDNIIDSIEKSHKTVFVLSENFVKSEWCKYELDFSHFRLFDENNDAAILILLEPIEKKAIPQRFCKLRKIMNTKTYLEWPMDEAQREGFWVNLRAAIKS
procedure details: TNF-α release from PMA-differentiated human THP-1 cells (ELISA);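 further: cells exposed to graded compound concentrations for 4 h, TNF-α quantified in supernatant, LPS as positive and DMSO as negative control, values are duplicate means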
run conditions: read-out: EC50 (nM) (THP-1): EC50 TNF-α release from human THP-1 cells; Table 3

molecule	EC50
O=C(CNC(=O)OCc1ccccc1)OCCCCCCCCCCCCNC(=O)[C@@H]1CN(C(=O)c2ccc(C(=O)N3C[C@@H](C(=O)N[C@H]4C[C@@H]4c4ccccc4)[C@H](C(=O)N[C@H]4C[C@@H]4c4ccccc4)C3)cc2)C[C@H]1C(=O)N[C@H]1C[C@@H]1c1ccccc1 [Compound 36]	0.1 nM
CC(C)(C)C(=O)NCC(=O)OCCCCCCCCCCCCNC(=O)[C@@H]1CN(C(=O)c2ccc(C(=O)N3C[C@@H](C(=O)N[C@H]4C[C@@H]4c4ccccc4)[C@H](C(=O)N[C@H]4C[C@@H]4c4ccccc4)C3)cc2)C[C@H]1C(=O)N[C@H]1C[C@@H]1c1ccccc1 [Compound 42]	1.8 nM
O=C(NCCCCCCCCCCCCO)[C@@H]1CN(C(=O)c2ccc(C(=O)N3C[C@@H](C(=O)N[C@H]4C[C@@H]4c4ccccc4)[C@H](C(=O)N[C@H]4C[C@@H]4c4ccccc4)C3)cc2)C[C@H]1C(=O)N[C@H]1C[C@@H]1c1ccccc1 [Compound 7]	0.21 nM
CC(=O)OCCCCCCCCCCCCNC(=O)[C@@H]1CN(C(=O)c2ccc(C(=O)N3C[C@@H](C(=O)N[C@H]4C[C@@H]4c4ccccc4)[C@H](C(=O)N[C@H]4C[C@@H]4c4ccccc4)C3)cc2)C[C@H]1C(=O)N[C@H]1C[C@@H]1c1ccccc1 [Compound 32]	0.14 nM
O=C(CNC(=O)OCC1c2ccccc2-c2ccccc21)OCCCCCCCCCCCCNC(=O)[C@@H]1CN(C(=O)c2ccc(C(=O)N3C[C@@H](C(=O)N[C@H]4C[C@@H]4c4ccccc4)[C@H](C(=O)N[C@H]4C[C@@H]4c4ccccc4)C3)cc2)C[C@H]1C(=O)N[C@H]1C[C@@H]1c1ccccc1 [Compound 38]	56 nM
O=C(COCc1ccccc1)OCCCCCCCCCCCCNC(=O)[C@@H]1CN(C(=O)c2ccc(C(=O)N3C[C@@H](C(=O)N[C@H]4C[C@@H]4c4ccccc4)[C@H](C(=O)N[C@H]4C[C@@H]4c4ccccc4)C3)cc2)C[C@H]1C(=O)N[C@H]1C[C@@H]1c1ccccc1 [Compound 46]	0.06 nM
O=C(CO)OCCCCCCCCCCCCNC(=O)[C@@H]1CN(C(=O)c2ccc(C(=O)N3C[C@@H](C(=O)N[C@H]4C[C@@H]4c4ccccc4)[C@H](C(=O)N[C@H]4C[C@@H]4c4ccccc4)C3)cc2)C[C@H]1C(=O)N[C@H]1C[C@@H]1c1ccccc1 [Compound 45]	0.2 nM
CC(C)(C)OCC(=O)OCCCCCCCCCCCCNC(=O)[C@@H]1CN(C(=O)c2ccc(C(=O)N3C[C@@H](C(=O)N[C@H]4C[C@@H]4c4ccccc4)[C@H](C(=O)N[C@H]4C[C@@H]4c4ccccc4)C3)cc2)C[C@H]1C(=O)N[C@H]1C[C@@H]1c1ccccc1 [Compound 47]	0.65 nM
CC(C)(C)OC(=O)NCC(=O)OCCCCCCCCCCCCNC(=O)[C@@H]1CN(C(=O)c2ccc(C(=O)N3C[C@@H](C(=O)N[C@H]4C[C@@H]4c4ccccc4)[C@H](C(=O)N[C@H]4C[C@@H]4c4ccccc4)C3)cc2)C[C@H]1C(=O)N[C@H]1C[C@@H]1c1ccccc1 [Compound 35]	0.14 nM

Data origin: patent US20250367166A1
